details: 328.15 K; 101.33 kPa; Liquid; Vibrating tube method
± gives the expanded uncertainty stated by the source.
Reported mass density by item:
Number plus unit, in that order.

Answered examples (3):
> print(dat)
                                   molecule  assay.readout              result
1  CCCc1cccc[n+]1CC.O=S(=O)([N-]S(=O)(=O)C(F)(F)F)C(F)(F)F   mass density  1419.2 ± 1.1 kg/m3
2  CCCCCc1cccc[n+]1CC.O=S(=O)([N-]S(=O)(=O)C(F)(F)F)C(F)(F)F   mass density  1344.6 ± 1.1 kg/m3
3  CCCCCCc1cccc[n+]1CC.O=S(=O)([N-]S(=O)(=O)C(F)(F)F)C(F)(F)F   mass density  1318.2 ± 1.1 kg/m3

Enquiry: Look up mass density for this molecule: "CCCCCCCc1cccc[n+]1CC.O=S(=O)([N-]S(=O)(=O)C(F)(F)F)C(F)(F)F"
Return: 1295.2 ± 1.1 kg/m3

Enquiry: Another molecule to check: CCc1cccc[n+]1CC.O=S(=O)([N-]S(=O)(=O)C(F)(F)F)C(F)(F)F [1,2-diethylpyridin-1-ium bis((trifluoromethyl)sulfonyl)imide]
Return: 1442.2 ± 1.2 kg/m3

Enquiry: Again, but for "CCCCc1cccc[n+]1CC.O=S(=O)([N-]S(=O)(=O)C(F)(F)F)C(F)(F)F"
Return: 1381.9 ± 1.1 kg/m3

Enquiry: Also "CCCCCCCCc1cccc[n+]1CC.O=S(=O)([N-]S(=O)(=O)C(F)(F)F)C(F)(F)F" ?
Return: 1272.3 ± 1.1 kg/m3
